test system: 17α-Ethinylestradiol (E2-17α) induced cholestasis in rats; test: Bile discharge in 17α-ethinylestradiol (E2-17α) induced cholestasis in rats; format: in vivo, Sprague Dawley rats; conditions: E2-17α cholestasis rats; P<0.05 vs E2-17α
test readout: Bile flow rate compared with the E2-17α group

molecule	recorded result
CC[C@@H]1C2C[C@H](O)CC[C@]2(C)C2CC[C@@]3(C)C(CC[C@@H]3[C@H](C)CCOP3(=O)OCC[C@@H](c4ccnc(Cl)c4)O3)C2[C@@H]1O (some centres unmarked)	significantly increased
CC[C@@H]1C2C[C@H](O)CC[C@]2(C)C2CC[C@@]3(C)C(CC[C@@H]3[C@H](C)CCO[P@@]3(=O)OCC[C@@H](c4ccncc4)O3)C2[C@@H]1O (some centres unmarked)	significantly increased
CC[C@@H]1C2C[C@H](O)CC[C@]2(C)C2CC[C@@]3(C)C(CC[C@@H]3[C@H](C)CCOP3(=O)OC(C)C[C@@H](c4ccncc4)O3)C2[C@@H]1O (some centres unmarked)	significantly increased
CC(C)[C@@H]1C2C[C@H](O)CC[C@]2(C)C2CC[C@@]3(C)C(CC[C@@H]3[C@H](C)CCOP3(=O)OCC[C@@H](c4ccncc4)O3)C2[C@@H]1O (some centres unmarked)	significantly increased
CC[C@@H]1C2C[C@H](O)CC[C@]2(C)C2CC[C@@]3(C)C(CC[C@@H]3[C@H](C)CCO[P@](=O)(N[C@@H](C)C(=O)COC(C)C)Oc3ccccc3)C2[C@@H]1O (some centres unmarked)	significantly increased

---

tested on: 17α-Ethinylestradiol (E2-17α) induced cholestasis in rats; assay: Serum ALT, AST, ALP in E2-17α induced cholestasis rats; format: in vivo, Sprague Dawley rats; settings: E2-17α cholestasis rats after intragastric administration; x ± s

compound	Serum ALP (U/L)
CC[C@@H]1C2C[C@H](O)CC[C@]2(C)C2CC[C@@]3(C)C(CC[C@@H]3[C@H](C)CCO[P@](=O)(N[C@@H](C)C(=O)COC(C)C)Oc3ccccc3)C2[C@@H]1O (stereo partly drawn)	220.35
CC(C)[C@@H]1C2C[C@H](O)CC[C@]2(C)C2CC[C@@]3(C)C(CC[C@@H]3[C@H](C)CCOP3(=O)OCC[C@@H](c4ccncc4)O3)C2[C@@H]1O (stereo partly drawn)	230.92
CC[C@@H]1C2C[C@H](O)CC[C@]2(C)C2CC[C@@]3(C)C(CC[C@@H]3[C@H](C)CCO[P@@]3(=O)OCC[C@@H](c4ccncc4)O3)C2[C@@H]1O (stereo partly drawn)	218.64
C[C@H](CCC(=O)O)[C@H]1CC[C@H]2[C@@H]3[C@@H](O)C[C@@H]4C[C@H](O)CC[C@]4(C)[C@H]3CC[C@]12C [UDCA, ursodeoxycholic acid, reference compound]	242.18
CC[C@@H]1C2C[C@H](O)CC[C@]2(C)C2CC[C@@]3(C)C(CC[C@@H]3[C@H](C)CCOP3(=O)OC(C)C[C@@H](c4ccncc4)O3)C2[C@@H]1O (stereo partly drawn)	235.64
CC[C@@H]1C2C[C@H](O)CC[C@]2(C)C2CC[C@@]3(C)C(CC[C@@H]3[C@H](C)CCOP3(=O)OCC[C@@H](c4ccnc(Cl)c4)O3)C2[C@@H]1O (stereo partly drawn)	226.65

Where do these numbers come from? They come from patent US11028111B2.
